Data credit: patent US6194383A

- Tested on: relevant organisms
- TEST_PROTOCOL: agar dilution test, MIC, in vitro activity (AB spectrum)
- Type: cell-based
- CONDITION_SET: 2nd of 6 value columns, strain head not printed; Muller-Hinton agar, 37° C., 24 hours
QUANTITY_MEASURED: MIC, in vitro activity (AB spectrum), concentration (µg/mL)
Expressed in µg/mL, but write only the number.

Data point: aiC15 -fatty acid-Asn-Dab-Pip-MeAsp-Asp-Gly-Asp-Gly-Dab-Val-Pro [A 1437 H] ; MIC, in vitro activity (AB spectrum), concentration = 0.098

Data point: iC14 -fatty acid-Asn-Dab-Pip-MeAsp-Asp-Gly-Asp-Gly-Dab-Val-Pro [A 1437 D] ; MIC, in vitro activity (AB spectrum), concentration = 0.195

Data point: aiC13 -fatty acid-Asn-Dab-Pip-MeAsp-Asp-Gly-Asp-Gly-Dab-Val-Pro [A 1437 F] ; MIC, in vitro activity (AB spectrum), concentration = 0.391

New cases:
Data point: iC14 -fatty acid-Asp-Dab-Pip-MeAsp-Asp-Gly-Asp-Gly-Dab-Val-Pro [A 1437 B] ; MIC, in vitro activity (AB spectrum), concentration = 0.195

Data point: aiC15 -fatty acid-Asp-Dab-Pip-MeAsp-Asp-Gly-Asp-Gly-Dab-Val-Pro [A 1437 G] ; MIC, in vitro activity (AB spectrum), concentration = 0.195

Data point: ic13 -fatty acid-Asn-Dab-Pip-MeAsp-Asp-Gly-Asp-Gly-Dab-Val-Pro [A 1437 C] ; MIC, in vitro activity (AB spectrum), concentration = 0.781

Data point: iC13 -fatty acid-Asp-Dab-Pip-MeAsp-Asp-Gly-Asp-Gly-Dab-Val-Pro [A 1437 A] ; MIC, in vitro activity (AB spectrum), concentration = 0.781

---

- Tested on: relevant organisms
- TEST_PROTOCOL: agar dilution test, MIC, in vitro activity (AB spectrum)
- Type: cell-based
- CONDITION_SET: 6th of 6 value columns, strain head not printed; Muller-Hinton agar, 37° C., 24 hours
QUANTITY_MEASURED: MIC, in vitro activity (AB spectrum), concentration (µg/mL)
Expressed in µg/mL, but write only the number.

Observe how each entry below is paired with its result.
Data point: iC13 -fatty acid-Asp-Dab-Pip-MeAsp-Asp-Gly-Asp-Gly-Dab-Val-Pro [A 1437 A] ; MIC, in vitro activity (AB spectrum), concentration = 3.13

Data point: aiC15 -fatty acid-Asn-Dab-Pip-MeAsp-Asp-Gly-Asp-Gly-Dab-Val-Pro [A 1437 H] ; MIC, in vitro activity (AB spectrum), concentration = 0.195

Data point: iC14 -fatty acid-Asp-Dab-Pip-MeAsp-Asp-Gly-Asp-Gly-Dab-Val-Pro [A 1437 B] ; MIC, in vitro activity (AB spectrum), concentration = 0.391

Continue with the next substance.
Data point: iC14 -fatty acid-Asn-Dab-Pip-MeAsp-Asp-Gly-Asp-Gly-Dab-Val-Pro [A 1437 D] ; MIC, in vitro activity (AB spectrum), concentration = 0.781

---

Measured MIC, in vitro activity (AB spectrum), concentration by item
- Test system: relevant organisms
- TEST_PROTOCOL: agar dilution test, MIC, in vitro activity (AB spectrum)
- Type: cell-based
- CONDITION_SET: 5th of 6 value columns, strain not given; Muller-Hinton agar, 37° C., 24 hours
Field: value (include unit after the number)

Hey, relevant organisms data for aiC13 -fatty acid-Asn-Dab-Pip-MeAsp-Asp-Gly-Asp-Gly-Dab-Val-Pro [A 1437 F] : MIC, in vitro activity (AB spectrum), concentration came out at 0.781 µg/mL

Hey, relevant organisms data for aiC15 -fatty acid-Asn-Dab-Pip-MeAsp-Asp-Gly-Asp-Gly-Dab-Val-Pro [A 1437 H] : MIC, in vitro activity (AB spectrum), concentration came out at 0.049 µg/mL

Hey, relevant organisms data for ic13 -fatty acid-Asn-Dab-Pip-MeAsp-Asp-Gly-Asp-Gly-Dab-Val-Pro [A 1437 C] : MIC, in vitro activity (AB spectrum), concentration came out at 0.781 µg/mL

Hey, relevant organisms data for iC14 -fatty acid-Asn-Dab-Pip-MeAsp-Asp-Gly-Asp-Gly-Dab-Val-Pro [A 1437 D] : MIC, in vitro activity (AB spectrum), concentration came out at 0.391 µg/mL

New cases:
Hey, relevant organisms data for iC13 -fatty acid-Asp-Dab-Pip-MeAsp-Asp-Gly-Asp-Gly-Dab-Val-Pro [A 1437 A] : MIC, in vitro activity (AB spectrum), concentration came out at 0.391 µg/mL

Hey, relevant organisms data for aiC15 -fatty acid-Asp-Dab-Pip-MeAsp-Asp-Gly-Asp-Gly-Dab-Val-Pro [A 1437 G] : MIC, in vitro activity (AB spectrum), concentration came out at 0.025 µg/mL

Hey, relevant organisms data for iC14 -fatty acid-Asp-Dab-Pip-MeAsp-Asp-Gly-Asp-Gly-Dab-Val-Pro [A 1437 B] : MIC, in vitro activity (AB spectrum), concentration came out at 0.049 µg/mL

---

Measured MIC, in vitro activity (AB spectrum), concentration by item
- System: relevant organisms
- TEST_PROTOCOL: agar dilution test, MIC, in vitro activity (AB spectrum)
- Assay type: cell-based
- CONDITION_SET: 6th of 6 value columns, strain head not printed; Muller-Hinton agar, 37° C., 24 hours
Expressed in µg/mL, but write only the number.

Observe how each entry below is paired with its result.
Data point: aiC13 -fatty acid-Asn-Dab-Pip-MeAsp-Asp-Gly-Asp-Gly-Dab-Val-Pro [A 1437 F] ; MIC, in vitro activity (AB spectrum), concentration = 1.56

Data point: aiC15 -fatty acid-Asp-Dab-Pip-MeAsp-Asp-Gly-Asp-Gly-Dab-Val-Pro [A 1437 G] ; MIC, in vitro activity (AB spectrum), concentration = 0.195

Continue with the next substance.
Data point: ic13 -fatty acid-Asn-Dab-Pip-MeAsp-Asp-Gly-Asp-Gly-Dab-Val-Pro [A 1437 C] ; MIC, in vitro activity (AB spectrum), concentration = 3.13
